# system.under.test: V122I TTR (Homo sapiens, UniProt P02766, V142I)
# Construct: 1-127; His6 (N); TEV cleavage site (N); made in house; host or cells: E. coli BL21 (DE3)
# experimental.details: Inhibition of mechano-enzymatic fibrillogenesis (ThT)
# Type: biochemical
# reported.conditions: residual V122I TTR fibrillar aggregation with equimolar ligand, ThT emission normalized to protein without ligand; mean ± SD
Agg (%) strictly under 10% means Fulfilled; at 10% or over means Not fulfilled.

[[record]]
compound = "O=C(O)COCCOCCOCCOc1c(Cl)cc(Nc2ccccc2C(=O)O)cc1Cl"
system_under_test = "V122I TTR (Homo sapiens, UniProt P02766, V142I)"
class_assignment = "Not fulfilled"

[[record]]
compound = "O=C(O)c1ccccc1Nc1cc(Cl)c(OCCCCCCCOc2c(Cl)cc(Nc3ccccc3C(=O)O)cc2Cl)c(Cl)c1 [mds84, reference compound]"
system_under_test = "V122I TTR (Homo sapiens, UniProt P02766, V142I)"
class_assignment = "Fulfilled"

[[record]]
compound = "O=C(O)CCc1cc(Cl)c(OCC/C=C/CCOc2c(Cl)cc(Nc3ccccc3C(=O)O)cc2Cl)c(Cl)c1"
system_under_test = "V122I TTR (Homo sapiens, UniProt P02766, V142I)"
class_assignment = "Not fulfilled"

[[record]]
compound = "O=C(O)CCc1ccc(OCC[C@@H](O)[C@H](O)CCOc2ccc(Nc3ccccc3C(=O)O)cc2Cl)c(Cl)c1"
system_under_test = "V122I TTR (Homo sapiens, UniProt P02766, V142I)"
class_assignment = "Not fulfilled"

[[record]]
compound = "O=C(O)CCc1cc(Cl)c(OCC[C@H](O)[C@@H](O)CCOc2c(Cl)cc(Nc3ccccc3C(=O)O)cc2Cl)c(Cl)c1"
system_under_test = "V122I TTR (Homo sapiens, UniProt P02766, V142I)"
class_assignment = "Fulfilled"

[[record]]
compound = "O=C(O)CCc1cc(Cl)c(OCCCOCCOc2c(Cl)cc(Nc3cnncc3C(=O)O)cc2Cl)c(Cl)c1"
system_under_test = "V122I TTR (Homo sapiens, UniProt P02766, V142I)"
class_assignment = "Not fulfilled"

[[record]]
compound = "O=C(O)CCc1cc(Cl)c(OCCCOCCOc2c(Cl)cc(Nc3ccncc3C(=O)O)cc2Cl)c(Cl)c1"
system_under_test = "V122I TTR (Homo sapiens, UniProt P02766, V142I)"
class_assignment = "Not fulfilled"


====

# system.under.test: V122I TTR (Homo sapiens, UniProt P02766, V142I)
# Construct: 1-127; His6 (N); TEV cleavage site (N); made in house; host or cells: E. coli BL21 (DE3)
# experimental.details: Inhibition of mechano-enzymatic fibrillogenesis (ThT)
# Assay type: biochemical
# reported.conditions: supplementary CSV; residual V122I TTR aggregation, equimolar ligand
Please enter T where Agg (%) is greater than or equal to 10%, and F where it is lower.

[[record]]
molecule = "O=C(O)CCc1ccc(OCCC(O)C(O)CCOc2c(Cl)cc(Nc3ccccc3C(=O)O)cc2Cl)c(Cl)c1 (centres unmarked)"
class_assignment = "T"

[[record]]
molecule = "O=C(O)CCc1cc(Cl)c(OCCCOCCOc2c(Cl)cc(Nc3cnccc3C(=O)O)cc2Cl)c(Cl)c1"
class_assignment = "F"

[[record]]
molecule = "O=C(O)CCc1cc(Cl)c(OCCCOCCOc2c(Cl)cc(Nc3ccccc3C(=O)O)cc2Cl)c(Cl)c1"
class_assignment = "F"

[[record]]
molecule = "O=C(O)CCc1cc(Cl)c(OCC[C@@H](O)[C@H](O)CCOc2ccc(Nc3ccccc3C(=O)O)cc2Cl)c(Cl)c1"
class_assignment = "T"

[[record]]
molecule = "O=C(O)CCc1ccc(OCC[C@@H](O)[C@H](O)CCOc2ccc(Nc3ccccc3C(=O)O)cc2Cl)c(Cl)c1"
class_assignment = "T"

[[record]]
molecule = "O=C(O)CCOCCCOCCCOCCCOc1c(Cl)cc(Nc2ccccc2C(=O)O)cc1Cl"
class_assignment = "T"

[[record]]
molecule = "O=C(O)COCCOCCOCCOc1c(Cl)cc(Nc2ccccc2C(=O)O)cc1Cl"
class_assignment = "T"

[[record]]
molecule = "O=C(O)CCc1cc(Cl)c(OCC[C@@H](O)[C@H](O)CCOc2c(Cl)cc(Nc3ccccc3C(=O)O)cc2Cl)c(Cl)c1"
class_assignment = "F"


====

# system.under.test: V122I TTR (Homo sapiens, UniProt P02766, V142I)
# Construct: 1-127; His6 (N); TEV cleavage site (N); made in house; host or cells: E. coli BL21 (DE3)
# experimental.details: Inhibition of mechano-enzymatic fibrillogenesis (ThT)
# Format: biochemical
# reported.conditions: V122I TTR, equimolar ligand
quantity.measured: antifibrillogenic activity, in words

[[record]]
compound = "O=C(O)CCc1cc(Cl)c(OCC[C@@H](O)[C@H](O)CCOc2ccc(Nc3ccccc3C(=O)O)cc2Cl)c(Cl)c1 [B20]"
quantity_measured = "antifibrillogenic activity, in words"
test_value = "reduced potency"

[[record]]
compound = "O=C(O)CCc1ccc(OCCC(O)C(O)CCOc2c(Cl)cc(Nc3ccccc3C(=O)O)cc2Cl)c(Cl)c1 (stereo not shown) [B21]"
quantity_measured = "antifibrillogenic activity, in words"
test_value = "reduced potency"

[[record]]
compound = "O=C(O)CCc1ccc(OCC[C@@H](O)[C@H](O)CCOc2ccc(Nc3ccccc3C(=O)O)cc2Cl)c(Cl)c1 [B22]"
quantity_measured = "antifibrillogenic activity, in words"
test_value = "reduced potency"


====

# system.under.test: wild-type TTR in normal human plasma (Homo sapiens)
# Construct: TTR in whole plasma, from individuals homozygous for wild-type TTR; from tissue; host or cells: whole human plasma from individuals homozygous for wild-type TTR
# experimental.details: Displacement of 125I-T4 from TTR in normal human plasma
# Assay type: binding
# reported.conditions: supplementary CSV; TTR in normal human plasma
quantity.measured: IC50 (µM)

[[record]]
compound = "O=C(O)CCc1cc(Cl)c(OCC[C@@H](O)[C@H](O)CCOc2c(Cl)cc(Nc3ccccc3C(=O)O)cc2Cl)c(Cl)c1 [B4A]"
system_under_test = "wild-type TTR in normal human plasma (Homo sapiens)"
quantity_measured = "IC50"
test_value = 4.4


====

# system.under.test: wild-type TTR in normal human plasma (Homo sapiens, UniProt P02766)
# Construct: TTR in whole plasma, from individuals homozygous for wild-type TTR; from tissue; host or cells: whole human plasma from individuals homozygous for wild-type TTR
# experimental.details: Displacement of 125I-T4 from TTR in normal human plasma
# Format: binding
# reported.conditions: ligand concentration reducing binding of 125I-thyroxine by wild-type TTR by 50% in normal human plasma; mean ± SD
pIC50: −log10 of the molar value.
quantity.measured: pIC50

[[record]]
molecule = "O=C(O)CCc1cc(Cl)c(OCOCCCOc2c(Cl)cc(Nc3ccccc3C(=O)O)cc2Cl)c(Cl)c1"
quantity_measured = "pIC50"
rel = "<"
test_value = 3.82

[[record]]
molecule = "O=C(O)CCOCCCOCCCOCCCOc1c(Cl)cc(Nc2ccccc2C(=O)O)cc1Cl"
quantity_measured = "pIC50"
rel = "="
test_value = 4.40

[[record]]
molecule = "O=C(O)CCc1cc(Cl)c(OCCOCCCCOc2c(Cl)cc(Nc3ccccc3C(=O)O)cc2Cl)c(Cl)c1"
quantity_measured = "pIC50"
rel = "="
test_value = 5.59

[[record]]
molecule = "O=C(O)c1ccccc1Nc1cc(Cl)c(OCCCCCCCOc2c(Cl)cc(Nc3ccccc3C(=O)O)cc2Cl)c(Cl)c1 [mds84, reference compound]"
quantity_measured = "pIC50"
rel = "="
test_value = 4.72


====

# system.under.test: wild-type TTR in normal human plasma (Homo sapiens, UniProt P02766)
# Construct: TTR in whole plasma, from individuals homozygous for wild-type TTR; from tissue; host or cells: whole human plasma from individuals homozygous for wild-type TTR
# experimental.details: Displacement of 125I-T4 from TTR in normal human plasma
# Assay type: binding
# reported.conditions: capacity to displace 125I-T4 from TTR in human plasma
quantity.measured: IC50 (nM)

[[record]]
smiles_data = "O=C(O)CCc1cc(Cl)c(OCCCCCCCOc2c(Cl)cc(Nc3ccccc3C(=O)O)cc2Cl)c(Cl)c1"
unit_text = "nM"
test_value = 2000

